activation values for the compounds below.
target: Integrin alpha-4 (Homo sapiens) (UniProt P13612); experiment: enhancers of LDV-FITC binding to VLA-4 integrin, primary screen, Jurkat cells, flow cytometry (AID 528); conditions: hits give high values, screened at 10 µM (by protocol);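 further: 0% = ligand binding without compound and 100% = manganese-stimulated maximal binding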
Sequence (P13612 whole entry, looked up): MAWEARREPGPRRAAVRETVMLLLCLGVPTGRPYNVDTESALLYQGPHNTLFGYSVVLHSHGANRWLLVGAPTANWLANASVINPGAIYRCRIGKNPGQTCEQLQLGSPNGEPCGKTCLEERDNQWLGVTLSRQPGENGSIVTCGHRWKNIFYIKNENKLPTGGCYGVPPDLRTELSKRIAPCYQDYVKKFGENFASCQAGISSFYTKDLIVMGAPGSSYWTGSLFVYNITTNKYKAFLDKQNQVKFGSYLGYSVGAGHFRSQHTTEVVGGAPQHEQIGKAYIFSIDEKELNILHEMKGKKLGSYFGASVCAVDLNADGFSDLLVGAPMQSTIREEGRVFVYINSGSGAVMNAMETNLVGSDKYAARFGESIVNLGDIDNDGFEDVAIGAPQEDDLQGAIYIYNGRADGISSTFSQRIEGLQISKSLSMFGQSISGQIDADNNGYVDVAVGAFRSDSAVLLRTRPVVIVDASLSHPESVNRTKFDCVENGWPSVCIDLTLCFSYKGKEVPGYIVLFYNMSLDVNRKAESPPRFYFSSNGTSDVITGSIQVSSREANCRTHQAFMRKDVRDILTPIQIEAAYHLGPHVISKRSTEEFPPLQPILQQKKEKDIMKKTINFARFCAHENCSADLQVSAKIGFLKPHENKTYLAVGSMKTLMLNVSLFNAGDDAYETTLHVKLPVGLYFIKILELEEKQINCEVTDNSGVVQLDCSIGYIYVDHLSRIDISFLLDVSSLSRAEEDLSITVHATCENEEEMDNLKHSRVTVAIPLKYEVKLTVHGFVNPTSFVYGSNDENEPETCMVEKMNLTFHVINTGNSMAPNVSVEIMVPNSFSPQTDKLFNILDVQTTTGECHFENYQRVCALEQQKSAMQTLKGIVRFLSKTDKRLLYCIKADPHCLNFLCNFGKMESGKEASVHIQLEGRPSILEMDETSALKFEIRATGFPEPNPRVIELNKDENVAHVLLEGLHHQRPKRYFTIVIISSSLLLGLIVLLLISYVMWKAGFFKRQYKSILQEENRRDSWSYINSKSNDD
Fewer than 10 of roughly 24,000 compounds were called active. Inconclusive results (about 9%) are left out. Not all results are given here.
Your answer should be a plain number; it is taken to be in %.

{"compound": "CCCC(=O)NC(C)C(c1cccs1)N1CCN(c2ccccc2)CC1 (stereo unspecified)", "result.units": "%", "activation": -2}
{"compound": "O=C(O)CSCNC(=O)CC12CC3CC(CC(C3)C1)C2", "result.units": "%", "activation": 13}
{"compound": "Cc1ccc(S(=O)(=O)NCC(=O)N(CC(=O)NC2CCCCC2)Cc2ccco2)cc1", "result.units": "%", "activation": 2}
{"compound": "O=C(CCCCn1c(=O)[nH]c2ccccc2c1=O)NCc1ccc2c(c1)OCO2", "result.units": "%", "activation": 10}
{"compound": "Cc1cc(Nc2cccc(F)c2)n2ncnc2n1", "result.units": "%", "activation": -0.5}

Exercise: State the recorded activation for this entry: Cn1c(=O)cc(OCCCC(=O)N2CCN(c3ccccn3)CC2)c2ccccc21
Solution: -10

Exercise: State the recorded activation for this entry: Cc1ccc(S(=O)(=O)N2C3C=CC(C3)C2C(=O)O)cc1 (stereo unspecified)
Solution: 5

* * *

target: Integrin alpha-4 (Homo sapiens); assay: enhancers of LDV-FITC binding to VLA-4 integrin, primary screen, Jurkat cells, flow cytometry (AID 528); settings: hits give high values, screened at 10 µM (by protocol);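 further: 0% = ligand binding without compound and 100% = manganese-stimulated maximal binding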
The whole screen tested about 24,000 compounds, of which fewer than 10 were called active. About 9% were inconclusive and are not listed. These entries were drawn from the full list.
property: activation (%)
Your answer should be a plain number; it is taken to be in %.

Look over these answered cases.
{"compound": "C#CC(C)(C)NC(=O)CSc1nc2c(c(=O)n(C)c(=O)n2C)n1CCCC", "measured.target": "Integrin alpha-4 (Homo sapiens)", "result.units": "%", "reported.measurement": 8}
{"compound": "COc1cccc(N2C(=O)CC(N3CCN(S(=O)(=O)c4ccccc4)CC3)C2=O)c1 (stereo unspecified)", "measured.target": "Integrin alpha-4 (Homo sapiens)", "result.units": "%", "reported.measurement": -2}

# ---- query compound ----
Exercise: Kindly state the measured activation obtained for Cc1ccccc1S(=O)(=O)Cc1ccc(C(=O)NCCN2CCCCC2C)o1 (stereo unspecified) with Integrin alpha-4 (Homo sapiens).
Solution: -1

* * *

target: Integrin alpha-4 (Homo sapiens) (UniProt P13612); assay: enhancers of LDV-FITC binding to VLA-4 integrin, primary screen, Jurkat cells, flow cytometry (AID 528); settings: hits give high values, screened at 10 µM (by protocol);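 further: 0% = ligand binding without compound and 100% = manganese-stimulated maximal binding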
Among all 24,000 compounds or so, fewer than 10 were called active. About 9% were inconclusive and are not listed. These entries were drawn from the full list.
property: activation (%)
Your answer should be a plain number; it is taken to be in %.

Look over these answered cases.
{"molecule": "CCOC(=O)C1CCCN(C(=O)C2CCN(c3nnc(-n4cccc4)s3)CC2)C1 (centres undefined)", "activation, %": -1}
{"molecule": "Cc1nnc(NC(=O)CCC(=O)N2CCC(C)CC2)s1", "activation, %": -0.5}

Exercise: Kindly state the measured activation obtained for O=S(=O)(O)CCN1CCOCC1 with Integrin alpha-4 (Homo sapiens) (UniProt P13612).
Solution: -6

Exercise: Kindly state the measured activation obtained for CCOC(=O)CSc1nnc(CNC(=O)c2cccs2)n1-c1ccccc1 with Integrin alpha-4 (Homo sapiens) (UniProt P13612).
Solution: -4

Exercise: Kindly state the measured activation obtained for CCOC(=O)N1CCN(C(=O)C2CC(c3ccc(F)cc3)=NO2)CC1 (centres undefined) with Integrin alpha-4 (Homo sapiens) (UniProt P13612).
Solution: 6

These entries and their values trace back to PubChem BioAssay AID528.
